recordedEndpoint: melting point

Study these solved cases before continuing.
| compound | melting point |
| --- | --- |
| COC(=O)C1=C(C)NC2=C(C(=O)CN(Cc3ccccc3)C2)C1c1ccccc1C (centres undefined) | 201 to 204 °C |
| CN(C)CCCn1c2c(c3ccccc31)CC(O)CC2 (centres undefined) | 174 to 176 °C |
| CC(C)(C)OC(=O)N1CCC2(CC1)c1ccccc1CS2=O (centres undefined) | 103 to 107 °C |

Now look at this entry.
-- ask Look at this compound and give its reported melting point. CCCn1c(=O)n(-c2ccc3c(c2)OCO3)c2ncccc21
-- reply 112 to 114 °C

====

recordedEndpoint: melting point

| compound | melting point |
| --- | --- |
| COC(=O)c1ccc(OCCNC(=O)C2Cc3ccccc3N2S(=O)(=O)c2ccc(-c3cccc(C(F)(F)F)c3)cc2)c(Cl)c1 (stereo not drawn) | 84 to 88 °C |
| CC1OC(Oc2ccc(C(=O)c3ccc(C#N)cc3)cc2)C(O)C(O)C1O (stereo not drawn) | 96 °C |

Now look at this entry.
-- ask Look at this compound and give its reported melting point. COc1cc(OC)cc(N2CCN(C(=O)N(C)c3cc(C(C)OC)c(C)nc3OC)CC2)c1 (stereo not drawn)
-- reply 117 to 119 °C

====

recordedEndpoint: melting point

| compound | melting point |
| --- | --- |
| OCC1CCCN1c1cc(N2CCOCC2)nc(-n2c(C(F)F)nc3c(O)cccc32)n1 (centres undefined) | 195 to 198 °C |
| CN1C(=O)[C@H](NC(=O)/C=C/c2c(Cl)cccc2Cl)N=C(c2ccccc2)c2ccccc21 | 121 to 124 °C |

-- ask Look at this compound and give its reported melting point. CCCCc1ccc(NC(=O)c2ccccc2C(c2ccc(O)cc2)c2ccc(O)cc2)cc1
-- reply 119 to 121 °C

-- ask Look at this compound and give its reported melting point. COc1cc2nc3c(c(-c4cc(OC)c(O)c(OC)c4)c2cc1OC)C(=O)OC3
-- reply 247 to 248 °C

====

Some molecules, each annotated with its measured melting point.

| molecule | melting point |
| --- | --- |
| O=C(Nc1ccc(N2CCCCC2)cc1)N(C[C@H]1CC[C@H](CN(C(=O)Nc2ccc(N3CCCCC3)cc2)C2CCCCC2)CC1)C1CCCCC1 | 174 to 178 °C |
| Cc1cn(C(C)C(=O)N(C)C)nc1-c1cccc(Cl)c1 (stereo unspecified) | 73 to 75 °C |

-- ask Look at this molecule and give its reported melting point. CCCCOc1c(CNC(=O)OC(C)(C)C)n(CC(C)(C)C)c(=O)c2ccc(F)cc12
-- reply 168 to 169 °C

-- ask Look at this molecule and give its reported melting point. O=C(Oc1cc(F)ccc1F)c1cc2cc(CCl)ccc2oc1=O
-- reply 137 to 140 °C

-- ask Look at this molecule and give its reported melting point. O=C(Nc1ccc(CCl)cc1)C1=Cc2cc(-c3ccccc3)ccc2CC1
-- reply 176 to 177 °C

-- ask Look at this molecule and give its reported melting point. COc1cc2c(cc1Nc1ncc(Cl)c(Nc3ccccc3S(=O)(=O)N(C)C)n1)CCN(C(=O)CN1CCOCC1)CC2
-- reply 84 to 95 °C

-- ask Look at this molecule and give its reported melting point. NS(=O)(=O)c1ccc(-c2cccc(-c3nc(-c4ccc(Cl)c(Cl)c4)cc(C(F)(F)F)n3)c2)s1
-- reply 203 °C

-- ask Look at this molecule and give its reported melting point. CCOc1ccc(CC(C)=O)cc1S(N)(=O)=O
-- reply 158 to 159 °C

-- ask Look at this molecule and give its reported melting point. CCCCC(CC(=O)Nc1cc(C(N)=O)ccc1C(C)(C)C)c1ccc(OCCCS(=O)(=O)CCC)cc1OC (stereo unspecified)
-- reply 108 to 128 °C

-- ask Look at this molecule and give its reported melting point. COc1nsnc1S(C)(=O)=O
-- reply 110 to 112 °C

-- ask Look at this molecule and give its reported melting point. Cc1cc(OCC2CO2)c2c3c(c(=O)oc2c1)CCCC3 (stereo unspecified)
-- reply 164 to 165 °C

-- ask Look at this molecule and give its reported melting point. COc1ccc(/C=C/c2ccc(Cl)cc2[N+](=O)[O-])c([N+](=O)[O-])c1
-- reply 202 °C

-- ask Look at this molecule and give its reported melting point. CCCCCCCCCCCc1cc2ccc(C(=O)O)cc2n1C
-- reply 165 to 168 °C

-- ask Look at this molecule and give its reported melting point. CCCCCOc1nc(Cl)nc2ccccc12
-- reply 32 to 34 °C

====

Some compounds, each annotated with its measured melting point.

Study these solved cases before continuing.
| compound | melting point |
| --- | --- |
| CC(C)C(S)C(=O)NC1(C(=O)NC(Cc2ccc(-c3ccccc3)nc2)C(=O)O)CCCC1 (centres undefined) | 208 to 211 °C |
| COc1ccc(C(O)c2cccnc2)cc1OC (centres undefined) | 76 to 78 °C |

-- ask Look at this compound and give its reported melting point. O=C(CCl)Nc1cc2c(Nc3cc(Cl)c(Cl)cc3F)ncnc2cc1OCCOCCF
-- reply 167 to 169 °C

-- ask Look at this compound and give its reported melting point. N=C(Nc1cc(NC(=O)/C=C/c2ccccc2C(F)(F)F)ccc1Cl)c1ccccc1
-- reply 188 to 189 °C

-- ask Look at this compound and give its reported melting point. CCc1c(OC)cc2c(c1O)C(=O)C[C@H]1CCN(C)C[C@@H]21 (relative stereo)
-- reply 221 to 223 °C

-- ask Look at this compound and give its reported melting point. O=C(O)CCCCOc1ccc2oc3ccccc3c(=O)c2c1
-- reply 151 to 152 °C

-- ask Look at this compound and give its reported melting point. Cc1cccc(C)c1-n1cc(C#N)c(=O)[nH]c1=O
-- reply 267 to 269 °C

-- ask Look at this compound and give its reported melting point. Clc1cccc(Cl)c1CN1CCNc2ncc(I)cc21
-- reply > 200 °C

-- ask Look at this compound and give its reported melting point. COc1ccc(C(=O)c2ccccc2F)c(Cl)c1Cl
-- reply 74 to 77 °C

====

Some compounds, each annotated with its measured melting point.

| compound | experimentalResult |
| --- | --- |
| COc1ccc(-c2ccc(C(=O)Nc3ccc4cc(CN5CCCCCC5)cnc4c3C)cc2)cc1 | 165 to 167 °C |
| COC(=O)Nc1nccc(Oc2ccc3c(C(=O)Nc4cccc(C(F)(F)F)c4)cccc3c2)n1 | 199 to 200 °C |
| CCc1cccc(-c2c(-c3ccc4nn(C)cc4c3)nsc2NC(=O)[C@@H]2C[C@H]2C)n1 | 159 °C |
| O=C(O)CCCc1cccc(OCc2ccccc2)c1 | 100 to 102 °C |
| CC(C)(O)CCCCCc1cccc(CCc2cc(O)cc(O)c2)c1 | 102 to 103 °C |
| CC1(C)N=C(c2ccccc2)CC1c1ccncc1 (centres undefined) | 90 to 92 °C |

Now look at this entry.
-- ask Look at this compound and give its reported melting point. N#Cc1cccc(C(=O)N[C@H]2C[C@H](C(=O)O)Nc3cc(Cl)cc(Cl)c32)c1 (relative stereo)
-- reply 229 to 231 °C

====

recordedEndpoint: melting point

Study these solved cases before continuing.
| molecule | experimentalResult |
| --- | --- |
| N/C(=C1/Sc2ccccc2C1=O)c1ccccc1 | 121 to 122 °C |
| COC1CC=C(c2ccc(C(C)=O)cc2)CC1 (stereo not given) | 40 to 42 °C |

-- ask Look at this molecule and give its reported melting point. Cn1ccc2c(-n3cc(C(=O)NC(=N)N)c4cccnc43)ncnc21
-- reply > 260 °C

-- ask Look at this molecule and give its reported melting point. CS(=O)(=O)c1ccc(-c2cccn3nc(N)nc23)cc1
-- reply 236 to 239 °C

-- ask Look at this molecule and give its reported melting point. CCc1nc2ccc(Cl)cc2c(=O)n1CCCn1ccnc1
-- reply 147 to 149 °C

====

Some compounds, each annotated with its measured melting point.

| compound | experimentalResult |
| --- | --- |
| Cc1c(C)c2c(c(C)c1NC(=O)C(C)(C)C)C(c1ccc(C(C)C)cc1)CO2 (stereo unspecified) | 177 to 178 °C |
| Cc1nc(Sc2ncccc2C(F)(F)F)sc1CC(=O)O | 195 to 196 °C |
| Cc1cc(O)ccc1-c1cc2ccccc2[nH]1 | 106 °C |
| CN(CCC(=O)O)S(=O)(=O)c1c(Cl)cccc1Cl | 115 °C |
| NC(=O)CCc1ccc([N+](=O)[O-])cc1 | 177 to 178 °C |
| CC(=O)Nc1ccn(C2OC(COC(C)=O)C(Br)C2OC(C)=O)c(=O)n1 (stereo unspecified) | 179 to 180 °C |
| O=C1CC(c2cccc(-n3ccnn3)c2)=Nc2ccc(-c3cccc(F)c3F)cc2N1 | 230 °C |
| COC(=O)C(C)(C)C(=O)OCOC1=C(C(=O)Nc2ccccn2)N(C)S(=O)(=O)c2ccccc21 | 112 to 114 °C |
| COCCOCCn1cc(C(=O)NCc2ccc(Cl)cc2)c(=O)c2cc(CN(C)[C@H](C)[C@@H](O)c3ccccc3)ccc21 | 106 to 109 °C |
| O=C(O)[C@H]1O[C@@H]1C1CCCCC1 | 64 to 65 °C |

-- ask Look at this compound and give its reported melting point. CC(C)Cn1c(=O)n(C)c(=O)c2c(SCCCO)n(Cc3cccc4ccccc34)nc21
-- reply 135 °C

-- ask Look at this compound and give its reported melting point. Cc1cc(C)nc(SSc2ccc([N+](=O)[O-])cc2C(Cl)(Cl)Cl)n1
-- reply 151 °C

-- ask Look at this compound and give its reported melting point. CS(=O)(=O)OCCCCC1C(=O)Nc2cc(F)ccc21 (stereo unspecified)
-- reply 106 to 108 °C

-- ask Look at this compound and give its reported melting point. COc1cc(C(O)C(Cl)(Cl)Cl)cc(OC)c1O (stereo unspecified)
-- reply 160 to 162 °C

-- ask Look at this compound and give its reported melting point. C=C(C)Cn1ncc(Cl)c(Cl)c1=O
-- reply 52 to 54 °C

-- ask Look at this compound and give its reported melting point. COCCNC(=O)C1CCCN1S(=O)(=O)c1ccc(Cl)c(COc2cccc3ccc(C)nc23)c1Cl (stereo unspecified)
-- reply 107 °C
